# experimental_target: T1, Purified recombinant human CD26 (rhDipeptidyl peptidase IV), R&D Systems CAT #1180-SE (human, UniProt P27487 29-766)
# T1 construct: Bought recombinant protein; also called hu-CD26; soluble human CD26
# T1 sequence (P27487 29-766 limits assumed): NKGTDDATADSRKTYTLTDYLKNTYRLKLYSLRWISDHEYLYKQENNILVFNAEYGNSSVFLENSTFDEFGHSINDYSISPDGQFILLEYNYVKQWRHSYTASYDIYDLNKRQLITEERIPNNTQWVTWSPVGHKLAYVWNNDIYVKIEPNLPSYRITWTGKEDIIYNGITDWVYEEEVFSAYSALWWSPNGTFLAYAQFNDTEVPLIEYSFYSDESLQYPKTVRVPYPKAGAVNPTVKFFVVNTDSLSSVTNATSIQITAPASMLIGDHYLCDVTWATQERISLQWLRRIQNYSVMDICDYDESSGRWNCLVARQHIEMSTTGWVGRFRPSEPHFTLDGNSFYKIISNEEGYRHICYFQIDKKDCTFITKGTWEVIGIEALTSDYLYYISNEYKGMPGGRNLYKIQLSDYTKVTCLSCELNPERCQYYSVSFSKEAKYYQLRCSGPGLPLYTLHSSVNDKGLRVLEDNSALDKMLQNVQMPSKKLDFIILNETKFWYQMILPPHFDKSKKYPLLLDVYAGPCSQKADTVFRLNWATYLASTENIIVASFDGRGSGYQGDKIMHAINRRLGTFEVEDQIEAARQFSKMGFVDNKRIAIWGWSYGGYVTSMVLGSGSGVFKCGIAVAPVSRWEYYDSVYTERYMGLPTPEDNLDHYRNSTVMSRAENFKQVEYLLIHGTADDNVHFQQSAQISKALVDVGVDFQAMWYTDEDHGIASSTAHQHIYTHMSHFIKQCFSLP
# test_name: SPR (Biacore), Fab
measured_attribute: pKd
API: returns pKd as number; meaning -log10 of concentration in mol/L.

Reference set (2 entries):
- binder: "Fab comprising X387 VH and CM03 VL (Fab, V domains shown, Fab made in E. coli) VH: EVQLVESGAELVQPGGSLRLTCKASGFTLNTYGVHWVRQAPGKGLEWMGVIWGGGRTDYDASFMSRVTISKDNSKNTAYLQLNSLRAEDTAVYYCTRSRHDWFDYWGQGTTVTVSS VL: DIQMTQSPSSLSASLGDRVTITCSASQGIRNSLNWYQQKPDGAVKLLIYYSSNLHSGVPSRFSGSGSGTDFSLTISNLEPEDIATYYCQQSIKLPFTFGSGTKLEIK"
  pKd: 7.29
- binder: "CM03 Fab X369 (Fab, V domains shown, Recombinant Fab made in E. coli; also called CM03 X369; CM03 (X369)) VH: QVKLQESGPGLVQPSQTLSITCTVSGFSLTTYGVHWVRQSPGKGLEWLGVIWGGGRTDYDAAFISRLSISKDNSKSQVFFKMNSLQANDTAIYYCVRNRHDWFDYWGQGTTVTVSS VL: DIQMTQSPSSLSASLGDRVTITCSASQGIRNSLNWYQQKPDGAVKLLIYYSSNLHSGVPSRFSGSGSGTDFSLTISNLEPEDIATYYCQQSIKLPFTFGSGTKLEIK"
  pKd: 8.79

// switching to the query binder
Which value of pKd has been reported for Fab comprising X384 VH and CM03 VL (Fab, V domains shown, Fab made in E. coli) VH: EVQLVESGAGVKQPGGTLRLTCTASGFSLTTYGVHWVRQAPGKGLEWVGVIWGDGRTDYDAAFMSRVTISKDTSKSTVYLQMNSLRAEDTAVYYCMRNRHDWFDYWGQGTTVTVSS VL: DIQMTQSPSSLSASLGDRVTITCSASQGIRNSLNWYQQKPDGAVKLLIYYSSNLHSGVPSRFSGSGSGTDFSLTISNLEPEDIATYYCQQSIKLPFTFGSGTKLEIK in the records?
8.92
